// provenance: ChEMBL document CHEMBL2040824

molecular target: Matrix metalloproteinase-9 (Homo sapiens, UniProt P14780)
Sequence (P14780 whole entry): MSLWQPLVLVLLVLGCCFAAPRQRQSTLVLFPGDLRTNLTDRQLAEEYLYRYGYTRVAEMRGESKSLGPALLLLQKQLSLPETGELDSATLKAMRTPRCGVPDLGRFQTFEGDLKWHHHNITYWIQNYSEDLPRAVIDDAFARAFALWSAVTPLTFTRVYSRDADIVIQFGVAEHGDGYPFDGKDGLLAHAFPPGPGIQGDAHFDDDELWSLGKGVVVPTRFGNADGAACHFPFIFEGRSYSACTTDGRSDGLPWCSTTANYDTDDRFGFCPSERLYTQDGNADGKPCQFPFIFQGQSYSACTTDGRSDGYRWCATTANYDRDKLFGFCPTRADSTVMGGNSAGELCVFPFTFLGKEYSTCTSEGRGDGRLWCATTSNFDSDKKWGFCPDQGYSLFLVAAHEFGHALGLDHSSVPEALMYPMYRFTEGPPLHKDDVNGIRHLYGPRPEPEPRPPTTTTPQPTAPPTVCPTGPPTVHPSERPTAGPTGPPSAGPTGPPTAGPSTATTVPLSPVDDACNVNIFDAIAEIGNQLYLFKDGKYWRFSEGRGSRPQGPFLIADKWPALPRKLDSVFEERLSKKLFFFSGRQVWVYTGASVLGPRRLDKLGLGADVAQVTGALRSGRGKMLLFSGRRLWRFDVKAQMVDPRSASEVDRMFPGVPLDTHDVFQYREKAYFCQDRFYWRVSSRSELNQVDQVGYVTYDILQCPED
pIC50: −log10 of the molar value.
parameter_measured: pIC50

compound	pIC50
CC1(C)NC(=O)N(CC(CS(=O)(=O)c2ccc(-c3ccc(OC(F)(F)F)cc3)cc2)N(O)C=O)C1=O (stereo not drawn)	9.47

a: CC1(C)OC[C@H](C(CS(=O)(=O)c2ccc(Oc3ccc(OC(F)(F)F)cc3)cc2)N(O)C=O)O1 (stereo partly drawn)
b: CCC1(CC)OC[C@H](C(CS(=O)(=O)c2ccc(Oc3ccc(OC(F)(F)F)cc3)cc2)N(O)C=O)O1 (stereo partly drawn)
Task: Of a and b , which shows the smaller pIC50 value? Mark your answer with the label of the selected entry.
Result: b
(b: 8.96, a: 9.30)
